Target: T1, hIL17-A (human, UniProt Q16552 24-155)
T1 construct: also called human IL-17A
T1 sequence (looked up): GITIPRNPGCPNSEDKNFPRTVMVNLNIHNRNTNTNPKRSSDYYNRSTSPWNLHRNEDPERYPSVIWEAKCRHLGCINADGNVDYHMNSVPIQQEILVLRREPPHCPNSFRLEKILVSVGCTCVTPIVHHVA
Assay: IL-17 binding assay (Kd), as described in GB1720932.1
Starred links: 1 amine or outer side, 2 acyl side, 3 side chain; linkers in the order of their positions; H or OH if unused. Positions of bridges follow the written chain, without caps; N, C: chain ends. No end group written: not given here. TBMB = c1c(C[*:1])cc(C[*:3])cc1C[*:2]
Measured metric: pKd
Recall that pKd is obtained by taking minus log10 of the concentration measured in molar.

Consider the binder CPENELYCFLSSQQC (linker 1-8-15 via TBMB) [Reference Example A2, CPENELYCFLSSQQC] and give its measured pKd.
6.40
